B1: tRNA (parent)
chain: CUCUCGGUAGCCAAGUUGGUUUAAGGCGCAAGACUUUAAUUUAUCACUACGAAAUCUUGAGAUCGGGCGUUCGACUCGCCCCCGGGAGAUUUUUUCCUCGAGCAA

# Variants of: B1
# test: nonsense suppression (GFP-seq) (ratio to wild type); higher = more function; SUP4oc tRNA, yeast GFP reporter sort-seq
This sample holds only a part of the variants without activity.
Quick rule for you: nonsense suppression at 0.2 or higher means t, lower means f.

biopolymerSequence: CUCUCGGUAGCCCAGUCGGUUGAAGGCGCAAGACUUUAAUUUAUCACUACGAAAUCUUGAGAUCGGGCGUUCGACUCGCCCCCGAGAGAUUUUUUCCUCGAGCAA
cat: t
--
biopolymerSequence: CUCUCGGUAGCCAAGUUGGUUUAAGGCGCAAGACUUUAAUUUAUCACUACGAAAUCUUGAGAUCGGGCGUUCGACUCGCCCCCGUGAAAUUUUUUCCUCGAGCAA
cat: f
--
biopolymerSequence: CUAACGGUAGCCAAGUUGGUUUAAGGCGCAAGACUUUAAUUUAUCACUACGAAAUCUUGAGGUCGGGCGUUCGACUCGCCCCCGGGAGAUUUUUUCCUCGAGCAA
cat: f
--
biopolymerSequence: CUCUCGGUAGCCAAGAUGGUUUAAGGCGUAAGACUUUAAUUUAUCACUACGAAAUCUUGAGAUCGGGCGUUCGACUCGCCCCCGGGAGAUUUUUUCCUCGAGCAA
cat: f
--
biopolymerSequence: CUCUGGGUAGCCAAGUUGGUUUAAGGCGCAAGACUUUAAUUUAUCACUACGAAAUCUUAAGCUCGGGCGUUCGACUCGCCCCCGGGAGAUUUUUUCCUCGAGCAA
cat: f
--
biopolymerSequence: CUCUCGGUGGCCAAGUUGGUUUAAGGCGCAAGACUUUAAUUUAUCACUACGAAAUCUUGAGAUCGGGCGUUCGACUCGCCCCCUGGAGAUUUUUUCCUCGAGCAA
cat: f
--
biopolymerSequence: CUCUCGGUAGCCAAGUUGGUGUAAGGCACAAGACUUUAAUUUAUCACUACGAAAUCUUGAGAUCGGGCGUUCGACUCGCCCCCGGGAGAUUUUUUCCUCGAGCAA
cat: t
--
biopolymerSequence: CUCUCGGUAGCCAAGUUGGUUUAAGGCGCAAGACUUUAAUUUAUCACUACGAAAUCUUGUGAUCGGGCGUUCAACUCGCCCCCGGGAGAUUUUUUCCUCGAGCAA
cat: t
--
biopolymerSequence: CUCUCGGUAGCCAAGUUGGUUCAAGGCGCAAGACUUUAAUUUAUCACUACGAAAUCUUGAGAUCGGGCGUUCAACUCGCUCCCGGGAGAUUUUUUCCUCGAGCAA
cat: f
--
biopolymerSequence: CUCUCGGUAGCCAAGUUGGUUUUAGGCGCAAGACUUUAAUUUAUCACUACGAAAUCUUGAGAUCGGGCGUUCGACUCUCCCCCGGGAGAUUUUUUCCUCGAGCAA
cat: f
--
biopolymerSequence: CUCUCGGUAGCCAAGUUGGUUUAAGGCGCAAGACUUUAAUUUAUCACUACGAAAUCUUGACAUUGGGGGUUCGACUCGCCCCCAGGAGAUUUUUUCCUCGAGCAA
cat: f
--
biopolymerSequence: CUCCCGGUAGCCAAGUUGGUUUAAGGCGCAAGACUUUAAUUUAUCACUACGAACUCUUGAGAUCGGGCGUUCGACUCGCCCCCGGGAGAUUUUUUCCUCGAGCAA
cat: t
--
biopolymerSequence: CUCUCGGUAGCCAACUUGCUUUAAGGCGCAAGACUUUAAUUUAUCACUACGAAAUCUUGAGAUCGGGCGUUCGACUCGCCCCCGGGAGAUUUUUUCCUCGAGCAA
cat: f
--
biopolymerSequence: AUCUCGGUAGCCAAGUUGGUUUAAGGCGCAAGACUUUAAUUUAUCACUACGAAAUCUUGAGAUCGGGCGUCCGACUGGCCCCCGGGAGAUUUUUUCCUCGAGCAA
cat: f
--
biopolymerSequence: CUCUCGGUAGCCAAGUCGGUUUAAGGCGCAAGACUUUAAUUUAUCACUACGAAAUCUUGAGAUCGGGCGUUGGACUCGCCCCCGGGAGAUUUUUUCCUCGAGCAA
cat: f
--
biopolymerSequence: CUCCCGGUAGCCAAGUUGGUUUAAGGCGCAAGACUUUAAUUUAUCACUACGAAAUCUGGAGAUCGGGCGUUCGCCUCGCCCCCGGGAGAUUUUUUCCUCGAGCAA
cat: f
--
biopolymerSequence: CUCUCGGUAGCCAAGUUGGUUUAAGGCGCAAGACUUUAAUUUAUCACUACGAACUCUUGAGAUCGGGCGUUCGACUCGCUCCCGGGAGAUUUUUUCCUCGAGCAA
cat: f

Entry source: the RNAGym collection of RNA variant scans (doi:10.1101/gad.245936.114)
